Attribution: patent US7183306B2

Test system: arthritic rats (adjuvant arthritis)
method description: Analgesic activity: effect on adjuvant arthritis in rats (Randall-Selitto pain threshold)
Format: in vivo, Lewis rats
settings: Rattus norvegicus, single dose, pain threshold of left hind paw 2 hrs after administration, threshold pressure of treated vs non-treated rats, ratio of 1.5 considered effective, read-out: The coefficient of analgesic
measured endpoint: response vs control in vivo at 3.2 mg/kg

[[record]]
compound = "COc1ccc(-n2nc(C(F)F)cc2-c2ccc(CNS(C)(=O)=O)cc2)cc1"
measured = "> 150%"

[[record]]
compound = "COc1ccc(-n2nc(C(F)(F)F)cc2-c2ccc(OCCN)cc2)cc1"
measured = "≥ 150%"

[[record]]
compound = "COc1ccc(-n2nc(C(F)(F)F)cc2-c2ccc(OCCNC(C)=O)cc2)cc1"
measured = "≥ 150%"

[[record]]
compound = "COc1ccc(-n2nc(C(F)(F)F)cc2-c2ccc(OCCNC(N)=O)cc2)cc1"
measured = "≥ 150%"


[ask] # get_value(readout='response vs control in vivo at 3.2 mg/kg', item= `COc1ccc(-n2nc(C(F)F)cc2-c2ccc(OCCNC(N)=O)cc2)cn1` )
[reply] ≥ 150%

###

melting point by entry:

Consider the worked cases shown below.
[[record]]
molecule = "COc1ccc(-n2nc(C(F)(F)F)cc2-c2ccc(CCNC(C)=O)cc2)cn1"
measured = "97 to 98 °C"

[[record]]
molecule = "COc1ccc(-n2nc(OCC(F)F)cc2-c2ccc(OCCNC(N)=O)cc2)cn1"
measured = "146.9 to 147.3 °C"

[[record]]
molecule = "COc1ccc(-n2nc(OCC(F)(F)F)cc2-c2ccc(OCCNS(C)(=O)=O)cc2)cc1"
measured = "131.3 to 131.4 °C"


[ask] # get_value(readout='melting point', item= `COc1ccc(-n2nc(C(=O)N3CCCCC3)cc2-c2ccc(OCCNC(N)=O)cc2)cn1` )
[reply] 164 to 167 °C

###

measured endpoint: melting point

[ask] # get_value(readout='melting point', item= `COc1ccc(-n2nc(C(C)C)cc2-c2ccc(CNS(C)(=O)=O)cc2)cc1` )
[reply] 130.9 to 131 °C

[ask] # get_value(readout='melting point', item= `COc1ccc(-n2nc(C(F)(F)F)cc2-c2ccc(CCS(N)(=O)=O)cc2)cc1` )
[reply] 131 to 132 °C

[ask] # get_value(readout='melting point', item= `COc1ccc(-n2nc(C(=O)C(C)C)cc2-c2ccc(OCCN)cc2)cc1.Cl` )
[reply] 129 to 142 °C

[ask] # get_value(readout='melting point', item= `COc1ccc(-n2nc(C#N)cc2-c2ccc(OCCNC(N)=O)cc2)cn1` )
[reply] 173 to 176 °C

[ask] # get_value(readout='melting point', item= `C=C(C)c1cc(-c2ccc(OCCNC(N)=O)cc2)n(-c2ccc(OC)nc2)n1` )
[reply] 94 to 98 °C

###

melting point by entry:

[ask] # get_value(readout='melting point', item= `COc1ccc(-n2nc(OC)cc2-c2ccc(CNC(N)=O)cc2)cc1` )
[reply] 206 to 260.9 °C

[ask] # get_value(readout='melting point', item= `COc1ccc(-n2nc(S(C)(=O)=O)cc2-c2ccc(OCCNC(N)=O)cc2)cc1` )
[reply] 165 to 167 °C

[ask] # get_value(readout='melting point', item= `COc1ccc(-n2nc(C(F)(F)F)cc2-c2ccc(CNS(C)(=O)=O)cc2)cn1` )
[reply] 125 to 126 °C

[ask] # get_value(readout='melting point', item= `COc1ccc(-n2nc(C(C)C)cc2-c2ccc(OCCNC(N)=O)cc2)cn1` )
[reply] 106 to 107 °C

[ask] # get_value(readout='melting point', item= `COc1ccc(-n2nc(NC(=O)N(C)C)cc2-c2ccc(OCCNC(N)=O)cc2)cc1` )
[reply] 193 to 196 °C
